Attribution: paper PMC3479139

# subjectOfTest: APE1 (Homo sapiens, UniProt P27695)
# Construct: made in house
# Sequence (P27695 whole entry): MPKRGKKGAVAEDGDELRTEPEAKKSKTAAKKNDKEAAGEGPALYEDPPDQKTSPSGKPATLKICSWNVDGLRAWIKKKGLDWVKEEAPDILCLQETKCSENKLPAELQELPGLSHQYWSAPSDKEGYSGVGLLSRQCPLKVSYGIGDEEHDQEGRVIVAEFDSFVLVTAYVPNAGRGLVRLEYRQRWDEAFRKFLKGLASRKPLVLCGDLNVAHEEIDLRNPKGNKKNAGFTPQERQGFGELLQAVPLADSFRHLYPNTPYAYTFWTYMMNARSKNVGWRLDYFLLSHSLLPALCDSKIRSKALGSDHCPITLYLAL
# assayRemarks: Gel-based radiotracer (32P) APE1 incision assay;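 note: APE1 incision reactions ran 5 min at 37 °C, with cleaved product and intact substrate resolved electrophoretically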
# Assay type: biochemical
# Design: concentration or dose not given beside the values
# measurementSetup: percent incision shown; entries 1-112
readoutName: Radiotracer Assay (%Activity) (%)
Numbers only, in %.

Examples from the recorded data:
COc1ccc(N2CCN(C(=O)Cc3ccc(S(=O)(=O)N4CCOCC4)s3)CC2)cc1 [MLS000760918] :: 45
O=C(O[C@@H]1OC2COC(=O)c3cc(O)c(O)c(O)c3-c3c(cc(O)c(O)c3O)C(=O)O[C@@H]([C@H]1O)[C@@H]2O)c1cc(O)c(O)c(O)c1 [MLS000563483] :: 16
O=C(NN1C(=O)/C(=C/C=C/c2ccco2)SC1=S)c1ccncc1 [MLS000762704] :: 36

# input for lookup
input: Note down Radiotracer Assay (%Activity) recorded for O=C(CCc1n[nH]c(=O)[nH]c1=O)N/N=C/c1ccco1 [MLS000685551]
output: 33

----------
# subjectOfTest: APE1 (Homo sapiens, UniProt P27695)
# Construct: made in house
# assayRemarks: Fluorescence polarization (FP) displacement assay of APE1 binding to AP-DNA probe
# measurementSetup: read-out: FP IC50
readoutName: IC50

Examples from the recorded data:
COc1cc(O)c2c(c1)oc(=O)c1c3cc(O)c(O)cc3oc21 :: > 57 µM
O=C(O)c1ccc(-n2cccc2/C=C2/NC(=O)N(c3cccc(Cl)c3)C2=O)cc1 :: 11.2 µM
O=C(OCC1O[C@@H](OC(=O)c2cc(O)c(O)c(O)c2)[C@@H](OC(=O)c2cc(O)c(O)c(O)c2)[C@@H](OC(=O)c2cc(O)c(O)c(O)c2)[C@@H]1OC(=O)c1cc(O)c(O)c(O)c1)c1cc(O)c(O)c(O)c1 (stereo partly shown) :: > 57 µM
O=C(O)CCCN1C(=O)/C(=C/C=C/c2ccco2)SC1=S :: > 57 µM
COc1ccc(N2CCN(C(=O)Cc3ccc(S(=O)(=O)N4CCOCC4)s3)CC2)cc1 :: > 57 µM
O=C(COC(=O)Cc1cccc(C(F)(F)F)c1)NCc1ccco1 :: > 57 µM

For every listed record, write down its IC50.
1. O=C(c1cc(C(=O)c2ccco2)cc(C(=O)c2ccco2)c1)c1ccco1
2. CC(C(=O)O)N1C(=O)/C(=C/C=C/c2ccco2)SC1=S (stereo not shown)
3. CC(=O)NC1=NC(=O)/C(=C/c2cc(C)n(-c3cccc(C(=O)O)c3)c2C)S1

output:
1: > 57 µM; 2: 12.6 µM; 3: > 57 µM

----------
# subjectOfTest: APE1 (Homo sapiens, UniProt P27695)
# Construct: made in house
# assayRemarks: Fluorescence polarization (FP) displacement assay of APE1 binding to AP-DNA probe
# measurementSetup: read-out: FP IC50
pIC50: −log10 of the molar value.
readoutName: pIC50

For every listed record, write down its pIC50.
1. Nc1ccc(Nc2ccccc2)c(S(=O)(=O)O)c1 [MLS000737782]
2. COc1ccc(OCCOc2ccc(/C=C3\C(=N)N4N=C(C)SC4=NC3=O)cc2)cc1 [MLS001359901]
3. NS(=O)(=O)c1ccc(N=Nc2ccc(=O)[nH]c2O)cc1 [MLS000738241]
4. CC(=O)c1cccc(OCC(=O)N(C)CC(=O)NCc2ccco2)c1 [MLS002251323]
5. CCc1cc(CNC(=O)c2ccc(OC3CCN(CCc4ccccc4)CC3)cc2)on1 [MLS001105846]
6. COc1c(-c2ccc(O)cc2)oc2cc(O)cc(O)c2c1=O [MLS000877008]
7. COCCN(C(=O)COC(=O)c1cc2c(s1)CCC2)c1c(N)n(Cc2ccccc2)c(=O)[nH]c1=O [MLS001080179]
8. COc1ccc(Cc2nnc(NC(=O)Cc3cccs3)s2)cc1OC [MLS000115025]

output:
1. < 4.24
2. < 4.24
3. < 4.24
4. < 4.24
5. 4.49
6. < 4.24
7. < 4.24
8. < 4.24

input: Note down pIC50 recorded for CC(C)(C)OC(=O)C[C@@H]1C/C=C\C[C@@H](CC(=O)NCCO)C(=O)N[C@H](Cc2c[nH]c3ccccc23)COC1=O [MLS002320206]
output: < 4.24

----------
# subjectOfTest: APE1 (Homo sapiens, UniProt P27695)
# Construct: made in house
# assayRemarks: Fluorescence polarization (FP) displacement assay of APE1 binding to AP-DNA probe;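 note: TAMRA 5′-labeled duplex DNA with THF abasic site (5 nM) and APE1 (20 nM), Mg2+-free buffer, 15 min at room temperature, inhibition seen as lowered polarization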
# measurementSetup: read-out: FP IC50
pIC50: −log10 of the molar value.
readoutName: pIC50

Examples from the recorded data:
COc1ccc(Cl)cc1NC(=O)CCS(=O)(=O)c1ccc(Br)cc1 :: < 4.24
CCC(C)C(=O)OCC1(c2ccc(C)cc2OC(=O)C(C)C)CO1 (stereo not drawn) :: < 4.24
Oc1cc(O)c2c(c1)OC(c1ccc(O)c(O)c1)C(O)C2 (stereo not drawn) :: < 4.24

For every listed record, write down its pIC50.
1. CN(CC(=O)Nc1cccc(F)c1)C(=O)c1cccc(-n2cccc2)c1
2. O=C(O)c1ccc(N2C(=O)c3cccc4c(C(=O)O)ccc(c34)C2=O)cc1
3. Cc1ccc(C)c(S(=O)(=O)Nc2ccc3oc(C)c(C(=O)O)c3c2)c1
4. Cc1ccc(NC(=O)CN2C(=O)S/C(=C\c3cccn3-c3cccc(C(=O)O)c3)C2=O)c(C)c1

output:
4.64
4.80
< 4.24
4.80

For every listed record, write down its pIC50.
1. CSC1=N/C(=C\c2ccc(Br)o2)C(=O)S1
2. CCCN(C(=O)c1cccc(-n2cccc2)c1)c1c(N)n(Cc2ccccc2)c(=O)[nH]c1=O
3. Nc1nc(=S)c2ncn(C3OC(CO)C(O)C3O)c2[nH]1 (stereo not drawn)
4. Nc1c(S(=O)(=O)O)cc(NC(=O)c2ccccc2)c2c1C(=O)c1ccccc1C2=O
5. Cc1cccc(C)c1NC(=O)CSc1nnc(-c2ccco2)c(-c2ccco2)n1
6. COc1cccc(NC(=O)CN(C)C(=O)c2cc3c(s2)CCC3)c1

output:
["< 4.24", 4.69, "< 4.24", "< 4.24", "< 4.24", "< 4.24"]

For every listed record, write down its pIC50.
1. N#C/C(=C/c1cccn1-c1cccc(C(=O)O)c1)c1ccc(Cl)cc1
2. COc1cc(-c2nnc(COC(=O)c3ccc(C)o3)o2)cc(OC)c1OC
3. NS(=O)(=O)c1ccc(NC(=O)CSc2nnc(NC3CC3)s2)cc1
4. Cc1ccccc1N=C1NC(=O)/C(=C/c2cccn2-c2cccc(C(=O)O)c2)S1
5. O=C1CC(=O)N(Cc2ccco2)C(=S)N1

output:
1. < 4.24
2. < 4.24
3. < 4.24
4. < 4.24
5. < 4.24

----------
# subjectOfTest: APE1 (Homo sapiens, UniProt P27695)
# Construct: made in house
# assayRemarks: Fluorogenic kinetic qHTS APE1 incision assay (primary screen and retest of cherrypicked samples);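 note: purified APE1 cleaving a fluorophore/dark-quencher labelled 17-mer duplex DNA bearing a tetrahydrofuran AP site, fluorescence rise followed kinetically over the first 2 min, inhibition normalized to controls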
# Assay type: biochemical
# measurementSetup: retest of cherrypicked sample; read-out: APE1 Retest IC50
readoutName: pIC50
One number for each entry, as −log10 of the molar value.

Examples from the recorded data:
Cc1cccc(N2NC(=O)/C(=C/c3ccc(-c4ccc(Cl)c(C(=O)O)c4)o3)C2=O)c1 :: 4.90
O=C(CSc1nc(-c2ccc(F)cc2)nc2c1Cc1ccccc1O2)Nc1ccc(C(=O)O)cc1 :: 5.35
COc1c(-c2ccc(O)cc2)oc2cc(O)cc(O)c2c1=O :: 5.55
O=c1ccc2[n+]([O-])c3ccc([O-])cc3oc-2c1.[Na+] :: 4.91
COc1ccc(NC(=O)c2cc(-c3ccco3)nc3ccccc23)cn1 :: 4.84

For every listed record, write down its pIC50.
1. O=C(COC(=O)Cc1cccc(C(F)(F)F)c1)NCc1ccco1
2. CC(=O)NC1=NC(=O)/C(=C/c2cc(C)n(-c3cccc(C(=O)O)c3)c2C)S1
3. CCOC(=O)c1ccc2[nH]c(-c3ccc(S(=O)(=O)F)cc3)cc(=O)c2c1

output:
4.34
5.36
4.84

----------
# subjectOfTest: E. coli Endo IV (Escherichia coli, UniProt P0A6C1)
# Construct: made in house
# assayRemarks: E. coli Endo IV profiling counterscreen;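 note: selectivity counterscreen of candidate APE1 inhibitors against the bacterial endonuclease Endo IV, run in the same assay format as the primary APE1 high-throughput screen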
# Type: biochemical
# measurementSetup: read-out: EndoIV IC50
readoutName: IC50

Examples from the recorded data:
CC1(C)CC2CC(C)(CN2C(=O)COC(=O)c2ccc(O)cc2O)C1 (centres unmarked) :: > 57 µM
O=C(Cc1ccc(S(=O)(=O)N2CCOCC2)s1)Nc1nc2c(s1)CCCC2 :: > 57 µM

For every listed record, write down its IC50.
1. O=C(CSc1nc2sc3c(c2c(=O)n1-c1ccccc1)CCCC3)NN=Cc1ccccc1C(=O)O
2. O=C(/C=C/c1ccc(O)c(O)c1)O[C@H](Cc1ccc(O)c(O)c1)C(=O)O
3. O=C(NN1C(=O)/C(=C/C=C/c2ccco2)SC1=S)c1ccncc1
4. O=C(/C=C/c1ccco1)OCC(=O)N1CCCCC1
5. C=CCn1c(SCC(=O)Nc2sc3c(c2C#N)CCC(C)C3)nc2cc(C(=O)O)ccc2c1=O (centres unmarked)

output:
["> 57 µM", "> 57 µM", "> 57 µM", "> 57 µM", "> 57 µM"]
